Test system: VMRC-RCZ (Kidney Carcinoma)
Assay: Bliss excess, mean over the matrix (fraction); higher = more synergy
Measured Bliss excess accompanies every entry in the list below.
Write the number on its own, no unit after it.

Please review the following examples before continuing.
CN(CCO)CC[C@H](CSc1ccccc1)Nc1ccc(S(=O)(=O)NC(=O)c2ccc(N3CCC([C@@H](O)c4ccccc4-c4ccc(Cl)cc4)CC3)cc2)cc1S(=O)(=O)C(F)(F)F [AZD4320] + CN(C)CCCOc1ccc(-c2ccc3ncc4c(c3c2)n(C2CCOCC2)c(=O)n4C)cn1 [AZD0156] (first compound max 1 µM, 7x7, partner max 1 µM): -0.058
O=C(c1cc(Cc2n[nH]c(=O)c3ccccc23)ccc1F)N1CCN(C(=O)C2CC2)CC1 [Olaparib] + COc1nnc2ccc(N3CCC(c4ccc(OCCN5CCN(C)C(=O)[C@H]5C)cc4)CC3)nn12 [AZD5153] (first compound max 10 µM, 7x7, partner max 1 µM): -0.0243
C=CCn1c(=O)c2cnc(Nc3ccc(N4CCN(C)CC4)cc3)nc2n1-c1cccc(C(C)(C)O)n1 [AZD1775] + C[C@@H]1COCCN1C2=NC(=NC(=C2)C3(CC3)[S@](=N)(=O)C)C4=C5C=CNC5=NC=C4 [AZD6738] (first compound max 1 µM, partner max 10 µM): -0.0639

Hello, please tell me recorded Bliss excess for this one: CC1(C)CCC(CN2CCN(c3ccc(C(=O)NS(=O)(=O)c4ccc(NCC5CCOCC5)c([N+](=O)[O-])c4)c(Oc4cnc5[nH]ccc5c4)c3)CC2)=C(c2ccc(Cl)cc2)C1 [Venetoclax] + C[C@@H](Nc1cc(F)cc(F)c1)c1cc(C(=O)N(C)C)cc2c(=O)cc(N3CCOCC3)oc12 [AZD8186] (first compound max 1 µM, 7x7, partner max 3 µM)
-0.0215

Hello, please tell me recorded Bliss excess for this one: O=C(c1cc(Cc2n[nH]c(=O)c3ccccc23)ccc1F)N1CCN(C(=O)C2CC2)CC1 [Olaparib] + CN(CC[C@H](CSC1=CC=CC=C1)NC2=C(C=C(C=C2)S(=O)(=O)NC(=O)C3=CC=C(C=C3)N4CCC(CC4)[C@H](C5=CC=CC=C5C6=CC=C(C=C6)Cl)O)S(=O)(=O)C(F)(F)F)CCO [AZD4320] (first compound max 10 µM, 7x7, partner max 1 µM)
-0.064

Hello, please tell me recorded Bliss excess for this one: C=CCn1c(=O)c2cnc(Nc3ccc(N4CCN(C)CC4)cc3)nc2n1-c1cccc(C(C)(C)O)n1 [AZD1775] + Nc1ccn([C@@H]2O[C@H](CO)[C@@H](O)C2(F)F)c(=O)n1 [Gemcitabine] (first compound max 1 µM, partner max 0.3 µM)
0.0417

Hello, please tell me recorded Bliss excess for this one: CC1(C)CCC(CN2CCN(c3ccc(C(=O)NS(=O)(=O)c4ccc(NCC5CCOCC5)c([N+](=O)[O-])c4)c(Oc4cnc5[nH]ccc5c4)c3)CC2)=C(c2ccc(Cl)cc2)C1 [Venetoclax] + CN(C)CCCOc1ccc(-c2ccc3ncc4c(c3c2)n(C2CCOCC2)c(=O)n4C)cn1 [AZD0156] (first compound max 1 µM, 7x7, partner max 1 µM)
-0.0492

----------
System: CHSA8926 (Chondrosarcoma)
Test: Bliss excess, mean over the matrix (fraction); higher = more synergy
Measured Bliss excess accompanies every entry in the list below.

C[C@@H](c1ccc2nccn2c1)n1nnc2ncc(-c3cnn(C)c3)nc21 [Savolitinib] + Cc1c2c(nn1C)CSCc1cc(n(C)n1)CSc1cc(c3ccccc3c1)OCCCc1c(C(=O)O)n(C)c3c-2c(Cl)ccc13 [AZD5991] (first compound max 1 µM, 7x7, partner max 1 µM): 0.0233

For the next question, use this compound.
Output reported Bliss excess of the compound COc1cccc(OCCCN)c1-c1cc(Nc2cnc(C#N)cn2)n[nH]1 [Prexasertib] + C=CCn1c(=O)c2cnc(Nc3ccc(N4CCN(C)CC4)cc3)nc2n1-c1cccc(C(C)(C)O)n1 [AZD1775] (first compound max 1 µM, partner max 1 µM) on CHSA8926 (Chondrosarcoma).
-0.0416

----------
Test system: COR-L279 (Small Cell Lung Carcinoma)
Assay: combination Emax (second highest fraction inhibited in the dose matrix, 72 h); higher = more inhibition; extreme values may be limits of the assay
quantity-measured: combination Emax
Write the number on its own, no unit after it.

CC1(C)CCC(CN2CCN(c3ccc(C(=O)NS(=O)(=O)c4ccc(NCC5CCOCC5)c([N+](=O)[O-])c4)c(Oc4cnc5[nH]ccc5c4)c3)CC2)=C(c2ccc(Cl)cc2)C1 [Venetoclax] + CN(C)CCCOc1ccc(-c2ccc3ncc4c(c3c2)n(C2CCOCC2)c(=O)n4C)cn1 [AZD0156] (first compound max 1 µM, 7x7, partner max 1 µM): 0.522
CC1(C)CCC(CN2CCN(c3ccc(C(=O)NS(=O)(=O)c4ccc(NCC5CCOCC5)c([N+](=O)[O-])c4)c(Oc4cnc5[nH]ccc5c4)c3)CC2)=C(c2ccc(Cl)cc2)C1 [Venetoclax] + CS(=O)(=O)CCNCc1ccc(-c2ccc3ncnc(Nc4ccc(OCc5cccc(F)c5)c(Cl)c4)c3c2)o1 [Lapatinib] (first compound max 1 µM, 7x7, partner max 10 µM): 0.911
Cc1cc2ncnn2cc1Nc1ncc2c(n1)n(C1CCOCC1)c(=O)n2C [AZD7648] + COc1cc([C@@H]2c3cc4c(cc3[C@@H](O[C@@H]3O[C@@H]5CO[C@@H](C)O[C@H]5[C@H](O)[C@H]3O)[C@H]3COC(=O)[C@H]23)OCO4)cc(OC)c1O [Etoposide] (first compound max 10 µM, 7x7, partner max 10 µM): 1
Cc1c2c(nn1C)CSCc1cc(n(C)n1)CSc1cc(c3ccccc3c1)OCCCc1c(C(=O)O)n(C)c3c-2c(Cl)ccc13 [AZD5991] + CN(C)CCCOc1ccc(-c2ccc3ncc4c(c3c2)n(C2CCOCC2)c(=O)n4C)cn1 [AZD0156] (first compound max 1 µM, 7x7, partner max 1 µM): 0.496
O=C(c1cc(Cc2n[nH]c(=O)c3ccccc23)ccc1F)N1CCN(C(=O)C2CC2)CC1 [Olaparib] + CN(CC[C@H](CSC1=CC=CC=C1)NC2=C(C=C(C=C2)S(=O)(=O)NC(=O)C3=CC=C(C=C3)N4CCC(CC4)[C@H](C5=CC=CC=C5C6=CC=C(C=C6)Cl)O)S(=O)(=O)C(F)(F)F)CCO [AZD4320] (first compound max 10 µM, 7x7, partner max 1 µM): 0.992

For the next question, use this compound.
Hello, please tell me recorded combination Emax for this one: Cc1c2c(nn1C)CSCc1cc(n(C)n1)CSc1cc(c3ccccc3c1)OCCCc1c(C(=O)O)n(C)c3c-2c(Cl)ccc13 [AZD5991] + CCN(CCO)CCCOc1ccc2c(Nc3cc(CC(=O)Nc4cccc(F)c4)[nH]n3)ncnc2c1 [AZD2811] (first compound max 1 µM, 7x7, partner max 1 µM)
0.787

----------
Tested on: NCI-H526 (Small Cell Lung Carcinoma)
Experiment: combination Emax (second highest fraction inhibited in the dose matrix, 72 h); higher = more inhibition; extreme values may be limits of the assay
quantity-measured: combination Emax
Write the number on its own, no unit after it.

CN(CCO)CC[C@H](CSc1ccccc1)Nc1ccc(S(=O)(=O)NC(=O)c2ccc(N3CCC([C@@H](O)c4ccccc4-c4ccc(Cl)cc4)CC3)cc2)cc1S(=O)(=O)C(F)(F)F [AZD4320] + C[C@@H]1COCCN1C2=NC(=NC(=C2)C3(CC3)[S@](=N)(=O)C)C4=C5C=CNC5=NC=C4 [AZD6738] (first compound max 1 µM, 7x7, partner max 10 µM): 0.977

For the next question, use this compound.
Hello, please tell me recorded combination Emax for this one: CN(CCO)CC[C@H](CSc1ccccc1)Nc1ccc(S(=O)(=O)NC(=O)c2ccc(N3CCC([C@@H](O)c4ccccc4-c4ccc(Cl)cc4)CC3)cc2)cc1S(=O)(=O)C(F)(F)F [AZD4320] + Cc1cc2ncnn2cc1Nc1ncc2c(n1)n(C1CCOCC1)c(=O)n2C [AZD7648] (first compound max 1 µM, 7x7, partner max 10 µM)
0.908

----------
System: SU-DHL-5 (B-Cell Non-Hodgkin's Lymphoma)
Assay: combination Emax (second highest fraction inhibited in the dose matrix, 72 h); higher = more inhibition; extreme values may be limits of the assay
Measured combination Emax accompanies every entry in the list below.

Please review the following examples before continuing.
Cc1nc(Nc2ncc(C(=O)Nc3c(C)cccc3Cl)s2)cc(N2CCN(CCO)CC2)n1 [Dasatinib] + CC(=O)Nc1cccc(-n2c(=O)n(C3CC3)c(=O)c3c(Nc4ccc(I)cc4F)n(C)c(=O)c(C)c32)c1 [Trametinib] (first compound max 2 µM, 7x7, partner max 1 µM): 1
COc1nnc2ccc(N3CCC(c4ccc(OCCN5CCN(C)C(=O)[C@H]5C)cc4)CC3)nn12 [AZD5153] + Cn1cnc2c(F)c(Nc3ccc(Br)cc3Cl)c(C(=O)NOCCO)cc21 [Selumetinib] (first compound max 1 µM, 7x7, partner max 10 µM): 1
Cc1cc2ncnn2cc1Nc1ncc2c(n1)n(C1CCOCC1)c(=O)n2C [AZD7648] + C=CCn1c(=O)c2cnc(Nc3ccc(N4CCN(C)CC4)cc3)nc2n1-c1cccc(C(C)(C)O)n1 [AZD1775] (first compound max 10 µM, partner max 1 µM): 1
COc1nnc2ccc(N3CCC(c4ccc(OCCN5CCN(C)C(=O)[C@H]5C)cc4)CC3)nn12 [AZD5153] + CC1(C)CCC(CN2CCN(c3ccc(C(=O)NS(=O)(=O)c4ccc(NCC5CCOCC5)c([N+](=O)[O-])c4)c(Oc4cnc5[nH]ccc5c4)c3)CC2)=C(c2ccc(Cl)cc2)C1 [Venetoclax] (first compound max 1 µM, 7x7, partner max 1 µM): 0.978

For the next question, use this molecule.
Output reported combination Emax of the molecule Cc1cc2ncnn2cc1Nc1ncc2c(n1)n(C1CCOCC1)c(=O)n2C [AZD7648] + O=C(c1cc(Cc2n[nH]c(=O)c3ccccc23)ccc1F)N1CCN(C(=O)C2CC2)CC1 [Olaparib] (first compound max 10 µM, 7x7, partner max 10 µM) on SU-DHL-5 (B-Cell Non-Hodgkin's Lymphoma).
0.96

The reported numbers originate from the supplement of paper PMC11061612.
